tested on: Human papillomavirus type 1a protein E7 (residues 44-93); test: HPV1a E7 fragment binders on microarrays, primary screen, biochemical, small-molecule microarray, residues 44-93, 635 nm fluorescence (AID 1108); conditions: small-molecule microarray binding, fluorescence 635 nm; higher = more signal;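 also: E7 fragment applied at 1 µg/mL in TBST for 1 h at 4 C; score combines spot fluorescence with its signal to noise ratio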
measurementLabel: composite z-score
Answers are plain numbers.

Worked cases, composite z-score given:
COC(=O)[C@@H]1CC[C@H](C)[C@@H](c2ccc(Br)cc2)N1C(=O)C(F)(F)F | -1.1
C=CC[C@@H]1C=CC(ON=C(C)C)[C@@H](CO)O1 (some centres not stated) | -1.17
CC(=O)OC[C@H]1O[C@H](CC=NOC(C)CN2CCCCc3nc(C)c(C)cc32)C=C[C@@H]1OC(C)=O (some centres not stated) | 1.11
C=CC[C@@H]1C=C[C@H](Oc2ccc(C)cc2)[C@@H](COC(=O)NCc2cccc3ccccc23)O1 | 0.286

For every record below, what is its composite z-score?
1. OC[C@H]1O[C@H](C#Cc2ccccc2)C=C[C@@H]1O
2. CCOC(=O)CCN1C(=O)[C@H]2[C@H]3[C@H](O)[C@H](O)CC(=O)[C@@H]3CC[C@H]2C1=O
3. CCOC(=O)CCN1C(=O)[C@H]2[C@H]3[C@H](O)[C@H](O)CC(=NO[C@@H]4O[C@H](CO)[C@@H](O)[C@H](O)[C@H]4O)[C@@H]3CC[C@H]2C1=O

OUT:
1. 0.0191
2. 0.555
3. 1.21

For every record below, what is its composite z-score?
1. CC(CCN1CCc2nc(-c3ccccc3)c(-c3ccccc3)cc2C1)=NO[C@H](C)c1cn([C@H](CO)Cc2ccccc2)nn1
2. CCOC(=O)NN=C1C[C@@H](O)[C@@H](O)[C@@H]2[C@@H]3C(=O)N(CC)C(=O)[C@@H]3CC[C@H]12
3. C[C@H]1CC[C@H]2C(=O)O[C@H](CO)CN2[C@@H]1c1ccc(Br)cc1

OUT:
1. -0.93
2. -0.307
3. 0.33

For every record below, what is its composite z-score?
1. C#CCCCON=C1C[C@@H](O)[C@@H](O)[C@@H]2[C@@H]3C(=O)N(C[C@@H]4CCCO4)C(=O)[C@@H]3CC[C@@H]12
2. CC(C)=NO[C@@H](C)c1cn([C@H](CO)Cc2ccccc2)nn1
3. O=C(NCCC[N+]1=CC=NC1c1ccccc1)N1CCCc2nc(-c3ccc(Br)cc3)ccc21 (configuration not stated)
4. CCc1cc2c(nc1CC)CCN(CCC(C)=NOCC[C@@H]1C=C[C@H](OC(C)=O)[C@@H](COC(C)=O)O1)C2
5. O=C1[C@H]2[C@H]3[C@H](O)[C@H](O)CC(=NO[C@@H]4O[C@H](CO)[C@@H](O)[C@H](O)[C@H]4O)[C@H]3CC[C@H]2C(=O)N1C[C@@H]1CCCO1
6. O=C1C=C[C@@H](O)[C@@H]2[C@@H]3C(=O)N(c4cccc(Oc5ccccc5)c4)C(=O)[C@@H]3CC[C@@H]12

OUT:
1: 0.578; 2: 0.833; 3: 0.107; 4: 1.11; 5: -0.429; 6: 0.242

For every record below, what is its composite z-score?
1. CCCC[C@H]1CN2[C@@H](CC[C@@H](C)[C@@H]2c2ccc(Br)cc2)C(=O)O1
2. CC(=O)OC[C@H]1O[C@H](CC=NOCC[C@@H]2C=C[C@H](OC(C)=O)[C@@H](COC(C)=O)O2)C=C[C@@H]1OC(C)=O

OUT:
1. 1.01
2. 1.02

====

biological target: Neurogenic locus notch homolog protein 3 (Homo sapiens) (UniProt Q9UM47); assay: NOTCH3 binders on small-molecule microarray, primary screen, biochemical, 635/667 nm fluorescence (AID 1096); details: NOTCH3 binding, 635 nm fluorescence, higher = more signal
Sequence (Q9UM47 whole entry, looked up): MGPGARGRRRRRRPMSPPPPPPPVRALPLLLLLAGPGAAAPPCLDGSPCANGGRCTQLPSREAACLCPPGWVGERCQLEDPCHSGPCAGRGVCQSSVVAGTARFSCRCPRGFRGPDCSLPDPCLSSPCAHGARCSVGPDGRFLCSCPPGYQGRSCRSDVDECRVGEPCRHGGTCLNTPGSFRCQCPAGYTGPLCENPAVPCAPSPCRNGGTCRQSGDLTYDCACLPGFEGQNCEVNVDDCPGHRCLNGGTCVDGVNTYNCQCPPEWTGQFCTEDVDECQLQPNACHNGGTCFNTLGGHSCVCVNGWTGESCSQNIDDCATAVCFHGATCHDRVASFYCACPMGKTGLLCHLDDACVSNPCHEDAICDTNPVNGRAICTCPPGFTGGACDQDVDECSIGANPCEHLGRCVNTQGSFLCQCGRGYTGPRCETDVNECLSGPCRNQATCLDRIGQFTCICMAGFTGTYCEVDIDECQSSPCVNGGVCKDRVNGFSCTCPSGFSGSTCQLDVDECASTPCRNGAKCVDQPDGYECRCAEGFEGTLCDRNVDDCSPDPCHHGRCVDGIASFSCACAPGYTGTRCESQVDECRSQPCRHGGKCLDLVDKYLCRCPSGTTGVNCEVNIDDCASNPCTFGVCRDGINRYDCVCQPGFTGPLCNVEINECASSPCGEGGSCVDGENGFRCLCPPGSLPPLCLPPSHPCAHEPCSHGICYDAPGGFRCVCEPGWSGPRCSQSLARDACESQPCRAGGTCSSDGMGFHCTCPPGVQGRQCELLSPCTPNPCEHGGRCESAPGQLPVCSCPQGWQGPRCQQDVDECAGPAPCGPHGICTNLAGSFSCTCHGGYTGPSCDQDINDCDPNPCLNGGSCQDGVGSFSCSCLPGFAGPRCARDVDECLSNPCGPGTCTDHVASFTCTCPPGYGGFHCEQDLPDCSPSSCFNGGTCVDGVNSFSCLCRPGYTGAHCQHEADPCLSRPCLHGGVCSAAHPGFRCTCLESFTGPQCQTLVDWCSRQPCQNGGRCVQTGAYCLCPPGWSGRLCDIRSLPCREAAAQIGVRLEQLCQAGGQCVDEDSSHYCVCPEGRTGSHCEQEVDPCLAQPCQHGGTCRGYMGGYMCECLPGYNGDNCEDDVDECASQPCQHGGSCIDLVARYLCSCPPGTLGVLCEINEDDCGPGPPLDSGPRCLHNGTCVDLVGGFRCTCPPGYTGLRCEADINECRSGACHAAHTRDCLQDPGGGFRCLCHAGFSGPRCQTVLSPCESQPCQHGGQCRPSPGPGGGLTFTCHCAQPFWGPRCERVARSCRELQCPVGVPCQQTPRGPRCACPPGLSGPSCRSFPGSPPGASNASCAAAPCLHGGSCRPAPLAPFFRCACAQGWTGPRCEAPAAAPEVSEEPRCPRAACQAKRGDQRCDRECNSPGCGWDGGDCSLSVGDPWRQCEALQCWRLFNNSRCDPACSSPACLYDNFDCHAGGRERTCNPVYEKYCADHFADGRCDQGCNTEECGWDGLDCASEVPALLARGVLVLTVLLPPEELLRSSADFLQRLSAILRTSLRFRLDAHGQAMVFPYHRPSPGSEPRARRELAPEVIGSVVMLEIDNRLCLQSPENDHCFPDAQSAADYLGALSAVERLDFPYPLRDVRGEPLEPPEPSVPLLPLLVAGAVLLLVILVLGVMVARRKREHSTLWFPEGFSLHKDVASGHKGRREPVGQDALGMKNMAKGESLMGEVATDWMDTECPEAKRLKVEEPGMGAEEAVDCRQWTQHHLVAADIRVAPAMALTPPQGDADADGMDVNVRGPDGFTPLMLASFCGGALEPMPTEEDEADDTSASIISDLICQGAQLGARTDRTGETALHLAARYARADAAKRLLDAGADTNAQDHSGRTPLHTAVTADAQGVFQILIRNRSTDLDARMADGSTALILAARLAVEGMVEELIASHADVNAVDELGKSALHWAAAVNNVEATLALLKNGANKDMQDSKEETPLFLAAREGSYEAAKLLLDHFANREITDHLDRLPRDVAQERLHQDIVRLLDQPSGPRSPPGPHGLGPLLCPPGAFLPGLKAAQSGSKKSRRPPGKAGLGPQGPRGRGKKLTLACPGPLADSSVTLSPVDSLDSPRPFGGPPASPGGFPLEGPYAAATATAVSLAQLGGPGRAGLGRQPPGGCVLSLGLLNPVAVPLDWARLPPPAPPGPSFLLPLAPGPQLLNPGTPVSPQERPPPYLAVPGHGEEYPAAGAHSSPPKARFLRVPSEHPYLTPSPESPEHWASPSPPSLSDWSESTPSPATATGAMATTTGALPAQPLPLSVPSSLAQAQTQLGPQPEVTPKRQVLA
measurementLabel: composite z-score
Give bare numbers.

For every record below, what is its composite z-score?
1. CC(C)=CCCC(C)=CCON=C1[C@H]2CCn3c(=O)n(-c4ccccc4)c(=O)n3[C@H]2[C@H](O)[C@@H]2O[C@H]12
2. CCOC(=O)[C@H](Cc1ccccc1)NC(=O)CCC1CC(OC(=O)NCc2cccc3ccccc23)CC2(CCCC(COC(=O)NCCc3ccc(Cl)cc3)O2)O1 (stereo not given in full)
3. CCOC(=O)[C@H](Cc1ccccc1)NC(=O)CCC1CC(OC(=O)NCc2cccc3ccccc23)CC2(CCCC(COC(=O)NCC3CCCCC3)O2)O1 (stereo not given in full)
4. O=C1C=C[C@@H](O)[C@@H]2[C@@H]3C(=O)N(Cc4ccccc4)C(=O)[C@@H]3CC[C@@H]12

OUT:
1. 1.07
2. 0.974
3. 1.14
4. 0.798

====

experiment: yeast growth modulation, basal conditions, primary screen, YJM789 clinical isolate, OD600, 24 h (AID 1089);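 also: growth of clinical yeast isolate S. cerevisiae YJM 789 seeded 1000 cells per well; test concentration not given here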; conditions: S. cerevisiae YJM789 growth, higher = more signal, called active from +8 up or from −8 down
So I've got a bunch of compounds here, and I need their z-score values.
Give bare numbers.

CCOC(=O)[C@H](Cc1ccccc1)NC(=O)CCC1CC(OC(=O)NCc2cccc3ccccc23)CC2(CCCC(COC(=O)NCCc3ccc(Cl)cc3)O2)O1 (stereo not given in full) | -0.69
CC(C)=CCCC(C)=CCON=C1[C@H]2CCn3c(=O)n(-c4ccccc4)c(=O)n3[C@H]2[C@H](O)[C@@H]2O[C@H]12 | -0.504
O=C1[C@H]2[C@H]3[C@H](O)[C@H](O)CC(=NO[C@@H]4O[C@H](CO)[C@@H](O)[C@H](O)[C@H]4O)[C@@H]3CC[C@H]2C(=O)N1C1CCCCC1 | 0.0081
C[C@]12CCC3c4ccc(OCC5CO5)cc4CCC3C1CC[C@@H]2O (stereo not given in full) | 0.199
C[C@H]1CC[C@H]2C(=O)N[C@H](Cc3ccccc3)C(=O)N2[C@@H]1c1ccccc1 | 0.492

For every record below, what is its z-score?
1. CCc1cc2c(nc1CC)CCN(CCC(C)=NO[C@@H]1O[C@H](COC(C)=O)[C@@H](OC(C)=O)[C@H](OC(C)=O)[C@H]1OC(C)=O)C2
2. COC(=O)[C@H](C)NC(=O)CC=C[C@@H](C)[C@@H]1C=C[C@H](O)[C@@H](CO)O1

OUT:
-0.149
0.351

For every record below, what is its z-score?
1. C[C@@H]1CC[C@H]2C(=O)N3[C@@H](CC[C@@H](C)[C@@H]3c3ccc(Br)cc3)C(=O)N2[C@H]1c1ccc(Br)cc1
2. CCN1C(=O)[C@H]2[C@H]3[C@H](O)[C@H](O)CC(=NNC(=O)OCc4ccccc4)[C@H]3CC[C@H]2C1=O
3. CC[C@@H](c1ccccc1)n1c(=O)n2n(c1=O)[C@H]1[C@H](O)[C@@H]3O[C@@H]3C(=NOCc3ccccc3)[C@H]1CC2
4. COC(=O)CC=C[C@@H](C)[C@@H](C=NOC[C@@H](C)[C@H](OCc1ccccc1)C(C)C)OC
5. COC(=O)[C@H](C)NC(=O)CCC1CC(OC(=O)NCc2cccc3ccccc23)CC2(CCCC(COC(=O)NCCOc3ccccc3)O2)O1 (stereo not given in full)
6. C[C@@H]1CC[C@@H](C(=O)O)N[C@H]1c1cccc(N2CCOCC2)c1

OUT:
1: -0.275; 2: -0.0067; 3: 0.183; 4: 0.0783; 5: -0.534; 6: 0.395

For every record below, what is its z-score?
1. C[C@@H]1CC[C@H]2C(=O)O[C@@H](CN=[N+]=[N-])CN2[C@H]1c1ccc(Br)cc1
2. CC(C)(C)N1C(=O)[C@H]2[C@H]3[C@H](O)[C@H](O)CC(=NNC(=O)OCc4ccccc4)[C@H]3CC[C@H]2C1=O
3. C=CC[C@@H]1C=C[C@H](ON=C[C@@H](NS(=O)(=O)c2ccc(C)cc2)[C@H](C)C=CCC(=O)OC)[C@@H](CO)O1
4. CCO[C@H](c1cc(OC)cc([N+](=O)[O-])c1OC)[C@H](C)[C@@H](OC)[C@H](C)C=CCC(=O)OC
5. CCCC[C@H]1CN2[C@@H](CC[C@@H](C)[C@@H]2c2ccc(Br)cc2)C(=O)O1
6. CC(CCN1CCc2nc(-c3ccccc3)c(-c3ccccc3)cc2C1)=NO[C@H](C)c1cn([C@H](CO)Cc2ccccc2)nn1
7. C[C@@H]1CC[C@H]2C(=O)OC(CN3C(=O)c4ccccc4C3=O)CN2[C@H]1c1ccc(Br)cc1 (stereo not given in full)
8. O=C1[C@H]2[C@H]3[C@H](O)[C@H](O)CC(=NO[C@@H]4O[C@H](CO)[C@@H](O)[C@H](O)[C@H]4O)[C@@H]3CC[C@H]2C(=O)N1c1cccc(Oc2ccccc2)c1

OUT:
1: 1.85; 2: 0.272; 3: -0.605; 4: 0.443; 5: 0.149; 6: -0.0115; 7: 0.341; 8: -0.603
